Values compiled from ChEMBL document CHEMBL1817602.

- Species on record: Bos taurus
- METHOD DESCRIPTION: Inhibition of calf thymus topoisomerase 1-mediated relaxation of supercoiled pBR322 DNA at 20 to 100 uM after 30 mins using ethidium bromide staining by UV-light transillumination analysis
Activity calls are given as the source filed them. The rule behind the calls is not given here.
Classes used: true = active, false = inactive

MOLECULAR STRING: C=CCn1c(-c2ccc(OC)cc2C=O)cc2ccccc2c1=O
ASSIGNED LABEL: true
//
MOLECULAR STRING: O=c1c2ccccc2cc2n1CC=Cc1cc3c(cc1-2)OCO3
ASSIGNED LABEL: true
//
MOLECULAR STRING: COc1ccc2c(c1)C=CCn1c-2cc2ccccc2c1=O
ASSIGNED LABEL: true
//
MOLECULAR STRING: COc1ccc2cc3n(c(=O)c2c1OC)CC=Cc1cc2c(cc1-3)OCO2
ASSIGNED LABEL: true
//
MOLECULAR STRING: C=CCn1c(-c2cc(OC)c(OC)cc2C=O)cc2ccccc2c1=O
ASSIGNED LABEL: true
//
MOLECULAR STRING: C=CCn1c(-c2cc(OC)c(OC)cc2COCOC)cc2ccccc2c1=O
ASSIGNED LABEL: true
//
MOLECULAR STRING: CC[C@@]1(O)C(=O)OCc2c1cc1n(c2=O)Cc2cc3ccccc3nc2-1
ASSIGNED LABEL: true
//
MOLECULAR STRING: COCOCc1cc(OC)ccc1-c1cc2ccccc2c(=O)[nH]1
ASSIGNED LABEL: true
//
MOLECULAR STRING: C=CCn1c(-c2ccc(OC)cc2C=C)cc2ccccc2c1=O
ASSIGNED LABEL: true
//
MOLECULAR STRING: COCOCc1cc(OC)c(OC)cc1-c1cc2ccccc2c(=O)[nH]1
ASSIGNED LABEL: true
//
MOLECULAR STRING: C=CCn1c(-c2ccc(OC)cc2COCOC)cc2ccccc2c1=O
ASSIGNED LABEL: true
//
MOLECULAR STRING: C=CCn1c(-c2cc3c(cc2C=O)OCO3)cc2ccc(OC)c(OC)c2c1=O
ASSIGNED LABEL: true
//
MOLECULAR STRING: C=CCn1c(-c2cc3c(cc2COCOC)OCO3)cc2ccccc2c1=O
ASSIGNED LABEL: true
//
MOLECULAR STRING: COc1cc2c(cc1OC)-c1cc3ccccc3c(=O)n1CC=C2
ASSIGNED LABEL: true
//
MOLECULAR STRING: C=CCn1c(-c2cc(OC)c(OC)cc2C=C)cc2ccccc2c1=O
ASSIGNED LABEL: true
//
MOLECULAR STRING: C=CCn1c(-c2cc3c(cc2C=C)OCO3)cc2ccc(OC)c(OC)c2c1=O
ASSIGNED LABEL: false
//
MOLECULAR STRING: C=CCn1c(-c2cc3c(cc2C=O)OCO3)cc2ccccc2c1=O
ASSIGNED LABEL: true
//
MOLECULAR STRING: C=CCn1c(-c2cc3c(cc2C=C)OCO3)cc2ccccc2c1=O
ASSIGNED LABEL: true
//
MOLECULAR STRING: C=CCn1c(-c2cc3c(cc2COCOC)OCO3)cc2ccc(OC)c(OC)c2c1=O
ASSIGNED LABEL: false
